Test system: UACC-62
Assay: NCI 60 antitumor screening (single dose / five doses)
Type: cell-based
Conditions: Homo sapiens; UACC-62 (melanoma), single dose 10 μM; read-out: Growth inhibition percentage (GI %)
// False strictly below 10% in inhibition at 10 µM; True otherwise

Record excerpt, results attached:
# molecule, label-value
measured = [
    ("Fc1cccc(Cl)c1/C=N/Nc1nc(N/N=C/c2c(F)cccc2Cl)nc(N2CCCCC2)n1 [compound 7l]", "True"),
    ("O=C(NNc1nc(NNC(=O)c2ccccc2)nc(N2CCOCC2)n1)c1ccccc1 [compound 8d]", "False"),
    ("Clc1cccc(/C=N/Nc2nc(N/N=C/c3cccc(Cl)c3Cl)nc(N3CCOCC3)n2)c1Cl [compound 6h]", "True"),
]

(Q) Hi, just wondering whether Oc1ccc(/C=N/Nc2nc(N/N=C/c3ccc(O)c(O)c3)nc(N3CCCCC3)n2)cc1O [compound 7j] shows inhibition at 10 µM of 10% or higher.
(A) False

(Q) Hi, just wondering whether C(=N\Nc1nc(N/N=C/c2ccc3c(c2)OCO3)nc(N2CCCCC2)n1)/c1ccc2c(c1)OCO2 [compound 7k] shows inhibition at 10 µM of 10% or higher.
(A) False

(Q) Hi, just wondering whether Fc1cccc(Cl)c1/C=N/Nc1nc(N/N=C/c2c(F)cccc2Cl)nc(N2CCOCC2)n1 [compound 6l] shows inhibition at 10 µM of 10% or higher.
(A) True

(Q) Hi, just wondering whether Oc1ccccc1/C=N/Nc1nc(N/N=C/c2ccccc2O)nc(N2CCOCC2)n1 [compound 6a] shows inhibition at 10 µM of 10% or higher.
(A) True

###

Tested on: NCI/ADR-RES
Test: NCI 60 antitumor screening (single dose / five doses)
Format: cell-based
Conditions: Homo sapiens; NCI/ADR-RES (ovarian cancer), single dose 10 μM; read-out: Growth inhibition percentage (GI %)
Listed here are compounds together with their documented inhibition at 10 µM.
Please give a number only; it is taken to be in %.

Solved entries (count: 4):
# compound, inhibition at 10 µM / %
data = [
    ("COC(=O)C(Cc1ccccc1)Nc1nc(NC(Cc2ccccc2)C(=O)OC)nc(N2CCOCC2)n1 (stereo not drawn) [compound 8c]", -10.6),
    ("Brc1cccc(/C=N/Nc2nc(N/N=C/c3cccc(Br)c3)nc(N3CCOCC3)n2)c1 [compound 6c]", 58.2),
    ("C(=N\\Nc1nc(N/N=C/c2ccc3c(c2)OCO3)nc(N2CCOCC2)n1)/c1ccc2c(c1)OCO2 [compound 6k]", 23.3),
    ("Oc1ccccc1/C=N/Nc1nc(N/N=C/c2ccccc2O)nc(N2CCCCC2)n1 [compound 7a]", 81),
]

(Q) Give its inhibition at 10 µM value. Item: O=C(NNc1nc(NNC(=O)c2ccccc2)nc(N2CCOCC2)n1)c1ccccc1 [compound 8d]
(A) 1.24

(Q) Give its inhibition at 10 µM value. Item: Oc1ccccc1/C=N/Nc1nc(N/N=C/c2ccccc2O)nc(N2CCOCC2)n1 [compound 6a]
(A) 77.1

(Q) Give its inhibition at 10 µM value. Item: Clc1cccc(/C=N/Nc2nc(N/N=C/c3cccc(Cl)c3)nc(N3CCCCC3)n2)c1 [compound 7d]
(A) 4.8

(Q) Give its inhibition at 10 µM value. Item: C(=N\Nc1nc(N/N=C/c2ccc3c(c2)OCO3)nc(N2CCCCC2)n1)/c1ccc2c(c1)OCO2 [compound 7k]
(A) 14.5

(Q) Give its inhibition at 10 µM value. Item: Clc1cccc(/C=N/Nc2nc(N/N=C/c3cccc(Cl)c3Cl)nc(N3CCOCC3)n2)c1Cl [compound 6h]
(A) 34.2

(Q) Give its inhibition at 10 µM value. Item: Brc1ccccc1/C=N/Nc1nc(N/N=C/c2ccccc2Br)nc(N2CCOCC2)n1 [compound 6b]
(A) 8.51

(Q) Give its inhibition at 10 µM value. Item: Fc1cccc(Cl)c1/C=N/Nc1nc(N/N=C/c2c(F)cccc2Cl)nc(N2CCCCC2)n1 [compound 7l]
(A) 84.8

(Q) Give its inhibition at 10 µM value. Item: Brc1ccccc1/C=N/Nc1nc(N/N=C/c2ccccc2Br)nc(N2CCCCC2)n1 [compound 7b]
(A) -2.41
